- tested.target: Clostridium difficile toxin B (TcdB) (Clostridium difficile, UniProt P18177 2-2366)
- Sequence (P18177 2-2366): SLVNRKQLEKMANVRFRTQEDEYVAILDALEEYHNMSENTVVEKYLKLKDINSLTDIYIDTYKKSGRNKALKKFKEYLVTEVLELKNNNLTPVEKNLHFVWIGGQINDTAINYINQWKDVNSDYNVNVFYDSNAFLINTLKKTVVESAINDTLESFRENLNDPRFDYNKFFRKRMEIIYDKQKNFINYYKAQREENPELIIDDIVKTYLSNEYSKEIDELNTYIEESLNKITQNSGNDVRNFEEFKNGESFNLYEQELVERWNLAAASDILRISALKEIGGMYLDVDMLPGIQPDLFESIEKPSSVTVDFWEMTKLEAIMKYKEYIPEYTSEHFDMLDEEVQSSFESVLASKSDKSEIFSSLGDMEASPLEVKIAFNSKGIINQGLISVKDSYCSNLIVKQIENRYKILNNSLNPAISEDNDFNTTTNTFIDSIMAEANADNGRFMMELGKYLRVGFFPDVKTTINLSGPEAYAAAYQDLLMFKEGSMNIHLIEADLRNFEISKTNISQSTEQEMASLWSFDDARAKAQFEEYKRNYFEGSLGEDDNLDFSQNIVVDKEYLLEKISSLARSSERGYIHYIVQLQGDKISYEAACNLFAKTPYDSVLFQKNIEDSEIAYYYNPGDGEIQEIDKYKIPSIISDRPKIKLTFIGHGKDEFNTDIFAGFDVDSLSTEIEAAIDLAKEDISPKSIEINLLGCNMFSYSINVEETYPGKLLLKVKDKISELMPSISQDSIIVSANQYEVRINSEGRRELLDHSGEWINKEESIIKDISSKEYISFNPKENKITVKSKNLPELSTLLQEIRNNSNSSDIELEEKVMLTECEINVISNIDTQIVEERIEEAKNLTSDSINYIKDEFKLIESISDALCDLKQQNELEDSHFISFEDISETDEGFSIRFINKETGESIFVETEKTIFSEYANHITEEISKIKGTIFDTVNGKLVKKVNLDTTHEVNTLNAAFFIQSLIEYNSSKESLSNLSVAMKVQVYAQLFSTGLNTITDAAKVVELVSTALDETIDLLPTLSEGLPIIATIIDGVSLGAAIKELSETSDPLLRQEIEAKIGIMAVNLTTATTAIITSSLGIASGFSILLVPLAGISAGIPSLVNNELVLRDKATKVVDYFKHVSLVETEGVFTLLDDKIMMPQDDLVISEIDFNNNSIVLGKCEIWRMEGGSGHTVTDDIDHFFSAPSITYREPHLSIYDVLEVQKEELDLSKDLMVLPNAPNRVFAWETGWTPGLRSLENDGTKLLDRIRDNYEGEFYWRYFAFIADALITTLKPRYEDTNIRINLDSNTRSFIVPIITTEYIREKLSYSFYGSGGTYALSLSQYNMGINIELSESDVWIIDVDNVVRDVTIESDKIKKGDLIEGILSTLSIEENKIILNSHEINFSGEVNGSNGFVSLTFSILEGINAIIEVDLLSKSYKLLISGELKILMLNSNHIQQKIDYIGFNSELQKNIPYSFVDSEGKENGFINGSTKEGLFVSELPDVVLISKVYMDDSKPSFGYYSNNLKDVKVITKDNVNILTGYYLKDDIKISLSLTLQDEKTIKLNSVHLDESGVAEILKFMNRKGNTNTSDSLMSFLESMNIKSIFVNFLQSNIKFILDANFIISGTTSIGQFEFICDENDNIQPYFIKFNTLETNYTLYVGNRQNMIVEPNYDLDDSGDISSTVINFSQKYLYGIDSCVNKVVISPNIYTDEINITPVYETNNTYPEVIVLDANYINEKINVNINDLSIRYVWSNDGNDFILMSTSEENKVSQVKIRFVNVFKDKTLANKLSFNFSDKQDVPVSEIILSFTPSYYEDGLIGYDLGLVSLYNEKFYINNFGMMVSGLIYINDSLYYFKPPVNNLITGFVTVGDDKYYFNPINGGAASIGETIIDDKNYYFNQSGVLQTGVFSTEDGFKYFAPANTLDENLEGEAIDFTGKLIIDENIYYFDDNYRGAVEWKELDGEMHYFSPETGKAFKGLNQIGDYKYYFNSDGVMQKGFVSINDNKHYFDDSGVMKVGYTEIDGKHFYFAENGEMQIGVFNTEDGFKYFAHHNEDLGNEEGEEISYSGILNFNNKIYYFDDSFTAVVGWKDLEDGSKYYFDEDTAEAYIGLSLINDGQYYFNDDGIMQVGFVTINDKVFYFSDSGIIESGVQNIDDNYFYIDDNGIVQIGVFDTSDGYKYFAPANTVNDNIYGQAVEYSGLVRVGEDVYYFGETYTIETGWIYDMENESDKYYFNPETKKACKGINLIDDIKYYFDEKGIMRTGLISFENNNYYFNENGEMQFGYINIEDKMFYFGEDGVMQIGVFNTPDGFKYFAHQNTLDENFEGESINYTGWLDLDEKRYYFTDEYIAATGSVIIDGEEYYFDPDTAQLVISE
- assay.method.text: cell-based or functional assay
quantity.measured: Apparent potency, (IC50); TcdB neutralization, Vero cell rounding assay (nM)

[[record]]
binder = "JZS-C2 (XAF-6) anti-TcdB VHH (VHH) VHH: QVQLAESGGGLVQPGGSLRLSCAASGFTSNSYYIGWFRQAPGKGREAVSSISSSGGSPNYANAVKGRFTITRDNANNTVYLQMDNLKPEDTAVYYCAASKFPLTTMASNRYHYWGQGTQVTVSS"
u = "nM"
relation_symbol = "="
value_reported = 0.5

[[record]]
binder = "JZS-H9 (XAF-14) anti-TcdB VHH (VHH, also called JZX-H9) VHH: QVQLVESGGGLVQPGGSLTINCTVSGTAFSLDTMTWYRQAPGKQRELAADISSSGASNYLASVKGRFTISRDNAKSALYLQMNSLKPEDTGTYYCYRGRVRGVWPLDSGMMYWGKGTLVTVSS"
u = "nM"
relation_symbol = "="
value_reported = 15

[[record]]
binder = "JZS-A2a (XAF-1) anti-TcdB VHH (VHH) VHH: QVQLAESGGGLVQAGGSLRLSCAASGSVYTFMGWYRQAPGKTRELVAGISGGTITKYADSVKGRFIISRDSPKNTIYLQMNELKVEDTGVYYCNAGDTIAQAMGTRRFPFDRWGQGTQVTVAS"
u = "nM"
relation_symbol = ">"
value_reported = 25

[[record]]
binder = "JZS-F6 (XAF-12) anti-TcdB VHH (VHH) VHH: QLQLAESGGGLVQPGGSLRLSCAASGITFSNVAMSWVRQAPGKGLEWVSTISTGGSSTSYLDSVKSRFTISRDNAKKTVYLQMNSLKPEDTAVYYCVKGPKYSATIRRPEGQGTQVTVSS"
u = "nM"
relation_symbol = "="
value_reported = 0.5

[[record]]
binder = "JZS-B9 (XAF-5) anti-TcdB VHH (VHH) VHH: QLQLVESGGGLVQPGGSLRLSCTSARFSLINYAIGWFRQAPGQKREGVSLLTSGGATYYADSARDRFTISRDNARNTVYLQMNSLKPEDTAVYSCAAGPYSRTLVSRWKVGDGMEYWGKGTLVTVSS"
u = "nM"
relation_symbol = "="
value_reported = 1

[[record]]
binder = "JZS-B2 (XAF-4) anti-TcdB VHH (VHH) VHH: QVQLAESGGGLVQAGGSLRLSCVGSGTSFPRNYMGWYRQAPGKQRELVAAISHDGNVEYADSVKGRFTISRGNFVNTVALQMNSLKSEDTAVYYCKLVTLRRDEYWGQGTQVTVSS"
u = "nM"
relation_symbol = ">"
value_reported = 125

[[record]]
binder = "JZS-E4 (XAF-10) anti-TcdB VHH (VHH, also called JZX-E4) VHH: QVQLVESGGGLAQAGGSLRLSCAASGSSFSMNVMGWYRQPPGKQRELVATIRSDGITNYAESVKGRFTISRDNVKNTVHLEMNRLKAEDTAVYYCFHGRARTGNNADLGSWGQGTQVTVSS"
u = "nM"
relation_symbol = "="
value_reported = 1

[[record]]
binder = "JZS-E6 (XAF-11) anti-TcdB VHH (VHH) VHH: QVQLAETGGGLVQAGGSLRLSCAASGRLSERIFMISTMAWYRQVPGKQRELVAEISRLGRANYSDSVTDRFIISRDNTKNTVDLQMNSLKPEDTAVYYCNLKPFVDNYRGPGTQVTVSS"
u = "nM"
relation_symbol = "="
value_reported = 1

[[record]]
binder = "JZT-F7 (XAG-1) anti-TcdB VHH (VHH) VHH: QVQLVETGGGLVQAGGSLRLSCAASGSILSSMGWYRQAPGNQREFVASISRTGATDYADSVAGRFIISRDRGKNTVLALQMDSLKPEDTAVYYCNAGLGMGDPRRPGPWWGQGTQVTVSS"
u = "nM"
relation_symbol = "="
value_reported = 1

[[record]]
binder = "JZT-G9 (XAG-7) anti-TcdB VHH (VHH) VHH: QVQLAETGGGLVQAGGSLRLSCVSSERNPGINAMGWYRQAPGSQRELVAVWQTGGSLSYADSVKGRFTISRDNLKNTVYLQMNSLKPEDAAVYYCYLKKWRDQYWGQGTRVTVSS"
u = "nM"
relation_symbol = "="
value_reported = 3

[[record]]
binder = "JZS-H4 (XAF-13) anti-TcdB VHH (VHH) VHH: QLQLVESGGGLVQPGGSLRLSCVASGFNFSVQIMSWVRQAPGKGLEWVSAISTGGASKSYADFAKGRFTISRDNAKNTLYLQMNSLQLEDTAVYFCSKGPRTWINSSPRGQGTQVTVSS"
u = "nM"
relation_symbol = "="
value_reported = 0.5

[[record]]
binder = "JZS-C10 (XAF-9) anti-TcdB VHH (VHH) VHH: QLQLVETGGLVQAGGSLRLSCVGSGRGPGINVMGWYRQAPGTERELVATWQTGGTTNYADSVKGRFTISRDNLKNTVSLQMDSLKPEDTAVYYCYLKKWRDEYWGQGTQVTVSS"
u = "nM"
relation_symbol = "="
value_reported = 0.5

